PROTOCOL TEXT: In vivo RBG concentrations in plasma and organs, liver-targeting indexes
Set-up: species or system Kunming mice
ASSAY CONTEXT: male, Kunming, mouse, liver, iv, 2 mg/kg
MEASUREMENT TYPE: AUC (ng·h/mL)
Give bare numbers, in ng·h/mL.

Given the entry `C[C@]12CC[C@H](O)C[C@H]1CC[C@@H]1[C@@H]2CC[C@]2(C)[C@@H](c3ccc(=O)oc3)C[C@H]3O[C@]132` , report its measured AUC. 2100

###

PROTOCOL TEXT: In vivo RBG concentrations in plasma and organs, liver-targeting indexes
Set-up: species or system Kunming mice
ASSAY CONTEXT: male, Kunming, mouse, liver/plasma, intravenous, 2 mg/kg
MEASUREMENT TYPE: Kp
Numbers only.

Which Kp value is on record for C[C@]12CC[C@H](O)C[C@H]1CC[C@@H]1[C@@H]2CC[C@]2(C)[C@@H](c3ccc(=O)oc3)C[C@H]3O[C@]132 [RS, Resibufogenin] ? 0.1

###

PROTOCOL TEXT: In vivo therapeutic effect in HCa-F solid tumor-bearing mice
ASSAY CONTEXT: male, mouse, tumor, intravenous, 2 mg/kg
MEASUREMENT TYPE: concentration at 7 days (ng/g)
Answers are plain numbers, in ng/g.

Name the reported concentration at 7 days value associated with the compound `C[C@]12CC[C@H](O)C[C@H]1CC[C@@H]1[C@@H]2CC[C@]2(C)[C@@H](c3ccc(=O)oc3)C[C@H]3O[C@]132` 50

###

PROTOCOL TEXT: In vivo RBG concentrations in plasma and organs, liver-targeting indexes
Set-up: species or system Kunming mice
ASSAY CONTEXT: male, Kunming, mouse, lung, iv, 2 mg/kg
MEASUREMENT TYPE: AUC (ng·h/mL)
Give bare numbers, in ng·h/mL.

Requested read-out: AUC. Entry: C[C@]12CC[C@H](O)C[C@H]1CC[C@@H]1[C@@H]2CC[C@]2(C)[C@@H](c3ccc(=O)oc3)C[C@H]3O[C@]132 [RS, Resibufogenin] 2500

###

PROTOCOL TEXT: In vivo RBG concentrations in plasma and organs, liver-targeting indexes
Design: species or system Kunming mice
ASSAY CONTEXT: male, Kunming, mouse, kidney, iv, 2 mg/kg
MEASUREMENT TYPE: AUC (ng·h/mL)
Numbers only, in ng·h/mL.

Please give the measured AUC for this compound: C[C@]12CC[C@H](O)C[C@H]1CC[C@@H]1[C@@H]2CC[C@]2(C)[C@@H](c3ccc(=O)oc3)C[C@H]3O[C@]132 [RS, Resibufogenin] 2700

###

PROTOCOL TEXT: In vivo RBG concentrations in plasma and organs, liver-targeting indexes
Set-up: species or system Kunming mice
ASSAY CONTEXT: male, Kunming, mouse, heart, iv, 2 mg/kg
MEASUREMENT TYPE: AUC (ng·h/mL)
Give bare numbers, in ng·h/mL.

Could you share which AUC value was measured for C[C@]12CC[C@H](O)C[C@H]1CC[C@@H]1[C@@H]2CC[C@]2(C)[C@@H](c3ccc(=O)oc3)C[C@H]3O[C@]132 [RS, Resibufogenin] ? 3700
